- MEASUREMENT NOTES: Selectivity index, ratio of IC50 for african green monkey (Cercopithecus aethiops) Vero cells to IC50 for chloroquine-sensitive Plasmodium falciparum D6
- Type: toxicity, cell-based
- CONDITION CONTEXT: read-out: Ratio IC50
Recorded selectivity ratio values for a group of compounds are listed next.
READOUT KIND: selectivity ratio

structure_string=C=C(C)[C@H]1CC[C@H](C)C[C@@H]1c1c(O)cc(-c2cc3ccccc3o2)cc1O readout_kind="selectivity ratio" result="> 1.4"
structure_string=C=C(C)[C@H]1CC[C@H](C)C[C@@H]1c1c(O)cc(/C=C/c2ccccc2O)cc1O readout_kind="selectivity ratio" result="> 7.4"
structure_string=C[C@H]1CC[C@H]2[C@H](C1)c1c(O)cc(/C=C/c3ccccc3O)cc1OC2(C)C readout_kind="selectivity ratio" result=1.6
